EXPERIMENT NOTES: chemical genetic growth profiling, strain panel (AID 1159580);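 note: tested at 20 µM; growth read once vehicle control cultures reached saturation at 30 °C; lower values mean less growth of the strain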
CONDITION LABEL: S. cerevisiae deletion strains, growth OD, locus YER110C
Hit rate of the full screen: of about 5,500 compounds, about 2,000 (36%) were called active. Roughly 18% stayed inconclusive and do not appear here. Cut-off read from the data, not from the text of the source: active = normalized growth mostly below about 0.91 (no sharp cut-off); inconclusive = no clear call, values can overlap the other calls; inactive = mostly above about 0.92. The list shows a part of the results.
Your response should consist of one outcome taken from YES = active, NO = inactive

Past entries and their recorded results:
CC(=C(CCOP(=O)(O)O)SC(=O)c1ccccc1)N(C=O)Cc1cnc(C)nc1N: NO
O=C(O)c1cc(=O)c2cc(Cl)ccc2[nH]1: NO
CCCCOc1ccc(OCCCN2CCOCC2)cc1: NO
N=c1nc(N2CCCCC2)cc(N)n1O: NO
O=C(/C=C/C=C/c1ccc2c(c1)OCO2)N1CCCCC1: NO
Oc1c(Cl)c(Cl)c(Cl)c(Cl)c1Cl: YES
CCc1cccc(C)c1N(C(=O)CCl)C(C)COC (centres undefined): NO
Cn1cc[nH]c1=S: NO

[ask] // param item: "C[N+](C)(C)CC(=O)[O-]" ; yields the recorded call
[reply] NO

[ask] Proceed to "CCCCOc1ccc(C(=O)CCN2CCCCC2)cc1"
[reply] YES

[ask] Proceed to "COc1ccc(C(=O)c2ccccc2)c(O)c1"
[reply] YES

[ask] Proceed to C=C1CC[C@H](O)C/C1=C/C=C1\CCC[C@]2(C)C([C@H](C)/C=C/[C@H](C)C(C)C)CC[C@@H]12 (some centres undefined)
[reply] NO

[ask] Proceed to "COc1ccc(C[C@H]2NC[C@H](O)[C@H]2OC(C)=O)cc1"
[reply] NO

[ask] Proceed to "CCN(CC)C(=S)SSC(=S)N(CC)CC"
[reply] YES

[ask] Proceed to COc1cc(OC)c2c(c1)OC(c1ccc(OC)c(OC)c1)C(O)C2 (centres undefined)
[reply] NO

[ask] Proceed to "OCc1ccccc1O[C@@H]1O[C@H](CO)[C@@H](O)[C@H](O)[C@H]1O"
[reply] NO

[ask] Proceed to "OC(CCN1CCCCC1)(c1ccccc1)c1ccccc1"
[reply] NO

[ask] Proceed to "O=C(O)COc1cc(Cl)c(Cl)cc1Cl"
[reply] NO

[ask] Proceed to CCC1(C)CC(=O)NC1=O (centres undefined)
[reply] NO

[ask] Proceed to "O=C(O)c1cc(=O)c2ccc(Cl)cc2[nH]1"
[reply] NO

[ask] Proceed to "Oc1ccc(O)cc1"
[reply] NO

[ask] Proceed to "COc1c2c(c(CC=C(C)C)c3oc(=O)c(-c4ccc(O)cc4)c(O)c13)OC(C)(C)C=C2"
[reply] NO

[ask] Proceed to "COc1ccc(-c2c(O)c3cc4c(c(CC=C(C)C)c3oc2=O)OC(C)(C)CC4)cc1"
[reply] NO

[ask] Proceed to "c1ccc(CN(CC2=NCCN2)c2ccccc2)cc1"
[reply] NO

[ask] Proceed to CC(=O)O[C@@](C)(CCC=C(C)C)C1CC=C(C)CC1 (some centres undefined)
[reply] NO

[ask] Proceed to "C=C(C)/C=C1/C=CC(=O)C(C)=C1"
[reply] YES

[ask] Proceed to "COc1ccc2c(c1)OC[C@@H](Cc1ccc(OC)c(OC)c1)[C@@H]2O"
[reply] NO

[ask] Proceed to "C=CC1=C(C(=O)O)N2C(=O)[C@@H](NC(=O)/C(=N/O)c3csc(N)n3)[C@H]2SC1"
[reply] NO
